Entries and their measured abundance fitness follow.
B1: Peroxisome proliferator-activated receptor delta, residues 71 to 145; numbered along this chain, Q03181 (parent)
chain: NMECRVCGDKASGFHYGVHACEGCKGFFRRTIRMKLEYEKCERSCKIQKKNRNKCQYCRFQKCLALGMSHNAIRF

# Variants of: B1
# protocol.details: abundance fitness (aPCA) (normalised: wild type 0, dead -1); higher = more abundant; growth selection in yeast, the domain comes from the species named
# cond: Homo sapiens
measurement.label: abundance fitness

* A72T | -0.248
* T31V | -0.394
* A72C | -0.126
* L36Q | -0.222
* E3R | -0.327
* Y38W | -0.397
* F60V | -0.622
* K25H | -0.19
* H19P | -0.028
* K49S | -0.207
* K40G | -0.472
* R29V | 0.105
* N53P | -0.468
* N53T | -0.112
